- Tested on: BDF1 mice, P388 leukemia ip, median survival T/C
- ASSAY DETAILS: NCI In Vivo Anticancer Drug Screen. Data for tumor model P388 Leukemia (intraperitoneal) in B6D2F1 (BDF1) mice
- TEST PARAMETERS: endpoint: median survival time; dose: 0.5 mg/kg/injection; schedule: Q01DX009 (ip); vehicle: saline
Inconclusive results and toxic doses are left out. The calls were made as follows: active = survival T/C of 150% or more; inactive = T/C below 125% in these data.
Select the matching outcome among active, inactive

Nc1nc(N)c2cc(CNc3ccc(C(=O)NC(CC(=O)O)C(=O)O)cc3)ccc2n1 (centres undefined): active
COC(C(=O)C(O)C(C)O)C1Cc2cc3cc(OC4CC(OC5CC(O)C(O)C(C)O5)C(O)C(C)O4)c(C)c(O)c3c(O)c2C(=O)C1OC1CC(OC2CC(O)C(OC3CC(C)(O)C(O)C(C)O3)C(C)O2)C(O)C(C)O1 (centres undefined): active
CCOC(=N)c1cn(C2OC(CO)C(O)C2O)c2ncnc(N)c12 (centres undefined): active

Consider the record given below.
Identify the outcome logged in this assay for the compound shown: CC1Cc2c(Cl)cc(C(=O)NC(Cc3ccccc3)C(=O)O)c(O)c2C(=O)O1 (centres undefined) inactive

====

- Test system: BDF1 mice, P388 leukemia ip, median survival T/C
- ASSAY DETAILS: NCI In Vivo Anticancer Drug Screen. Data for tumor model P388 Leukemia (intraperitoneal) in B6D2F1 (BDF1) mice
- TEST PARAMETERS: endpoint: median survival time; dose: 150.0 mg/kg/injection; schedule: Q04DX003 (ip); vehicle: saline with Tween-80
Toxic doses and inconclusive results are not listed. Rule for the calls: active = survival T/C of 150% or more; inactive = T/C below 125% in these data.
Select the matching outcome among YES for active, NO for inactive

Worked examples, 2 compounds total:
CCO/C=C1\SC(=S)N(Cc2ccccc2)C1=O: NO
CCOC(=O)c1cnn(C(N)=S)c1N: NO

Identify the outcome logged in this assay for the compound shown: CN=NNc1ccccc1 NO

Identify the outcome logged in this assay for the compound shown: c1ccc2c(Nc3ccc(C4=NCCN4)cc3)nnc(Nc3ccc(C4=NCCN4)cc3)c2c1 YES

====

- System: BDF1 mice, P388 leukemia ip, median survival T/C
- ASSAY DETAILS: NCI In Vivo Anticancer Drug Screen. Data for tumor model P388 Leukemia (intraperitoneal) in B6D2F1 (BDF1) mice
- TEST PARAMETERS: endpoint: median survival time; dose: 50.0 mg/kg/injection; schedule: Q01DX009 (ip); vehicle: other
Inconclusive results and toxic doses are left out. How the source made its calls: active means survival T/C of 150% or more; inactive means T/C below 125% in these data.
Select the matching outcome among y = active, n = inactive

N#Cc1cnn2c(=O)[nH]cnc12: n
O=C(O)/C=N/NS(=O)(=O)/C=C/c1ccccc1: y

Identify the outcome logged in this assay for the compound shown: NC(=S)N/N=C\c1ncccc1OCc1cccc(N)c1 y

====

What T/C was measured for each of the following?
- Test system: BDF1 mice, P388 leukemia ip, median survival T/C
- ASSAY DETAILS: NCI In Vivo Anticancer Drug Screen. Data for tumor model P388 Leukemia (intraperitoneal) in B6D2F1 (BDF1) mice
- TEST PARAMETERS: endpoint: median survival time; dose: 400.0 mg/kg/injection; schedule: Q01DX009 (ip); vehicle: saline; higher = longer survival
Toxic doses and inconclusive results are not listed.

Worked examples, 3 compounds total:
Nc1ccn[nH]1: 118 % of control
OC(CI)C(O)C(O)C(O)CI (configuration not stated): 109 % of control
CCN(CC)C(=O)Cn1ccc(NC(C)=O)nc1=O: 100 % of control

For every item below, please supply its T/C.
1. COC(=O)C1(C)CCC(c2ccc(OC)cc2)C(CC(=O)O)C1=O (configuration not stated)
2. CCN1c2c(nc(N)[nH]c2=O)NCC1CNc1ccc(C(=O)NC(CCC(=O)O)C(=O)O)cc1 (configuration not stated)
3. CCOC(=O)CCN1CC(C)OC(C)C1 (configuration not stated)
4. Nc1nc(N)c(N=O)c(N)n1

["109 % of control", "105 % of control", "100 % of control", "106 % of control"]

====

- Tested on: BDF1 mice, P388 leukemia ip, median survival T/C
- ASSAY DETAILS: NCI In Vivo Anticancer Drug Screen. Data for tumor model P388 Leukemia (intraperitoneal) in B6D2F1 (BDF1) mice
- TEST PARAMETERS: endpoint: median survival time; dose: 12.5 mg/kg/injection; schedule: Q01DX009 (ip); vehicle: Klucel (hydroxypropylcellulose) (HPC)
Toxic doses and inconclusive results are not listed. The calls were made as follows: active = survival T/C of 150% or more; inactive = T/C below 125% in these data.
Select the matching outcome among active, inactive

COc1cc(NS(C)(=O)=O)ccc1Nc1c2ccccc2nc2ccccc12: active

Identify the outcome logged in this assay for the molecule shown: Oc1ccccc1C=NCCN1CC1.Oc1ccccc1C=NCCN1CC1.[Ni+2] inactive

Identify the outcome logged in this assay for the molecule shown: CCCCC(=O)NN(Cn1c(=S)sc2ccccc21)Cn1c(=S)sc2ccccc21 inactive

Identify the outcome logged in this assay for the molecule shown: CCOc1ccc(/C=N\N=C\c2ccc(OCC)cc2)cc1 inactive

Identify the outcome logged in this assay for the molecule shown: COc1ccc2c3csc4ccccc4c-3nc2c1 inactive

Identify the outcome logged in this assay for the molecule shown: N#Cc1cccc(C[P+](c2ccccc2)(c2ccccc2)c2ccccc2)c1 inactive

Identify the outcome logged in this assay for the molecule shown: CC(=O)OC1=NC(C)c2c1cc(OC(C)=O)[nH]c2=O (stereo unspecified) inactive

Identify the outcome logged in this assay for the molecule shown: O=C1NC(c2ccccc2)(c2ccccc2)C(=O)N1SC(Cl)(Cl)Cl inactive

Identify the outcome logged in this assay for the molecule shown: CS(=O)(=O)OCCCOS(C)(=O)=O inactive

Identify the outcome logged in this assay for the molecule shown: CC(C)=CCc1c(O)ccc(C(=O)/C=C/c2ccccc2)c1O inactive

Identify the outcome logged in this assay for the molecule shown: C=C(Br)CNCCCCCC inactive

====

What T/C was measured for each of the following?
- Tested on: BDF1 mice, P388 leukemia ip, median survival T/C
- ASSAY DETAILS: NCI In Vivo Anticancer Drug Screen. Data for tumor model P388 Leukemia (intraperitoneal) in B6D2F1 (BDF1) mice
- TEST PARAMETERS: endpoint: median survival time; dose: 200.0 mg/kg/injection; schedule: Q04DX003 (ip); vehicle: saline; higher = longer survival
Toxic doses and inconclusive results are not listed.

Worked examples, 6 molecules total:
C1=CCONC1: 120 % of control
C=C(C)CC#N: 109 % of control
NNc1nc2c(N)ncnc2n1C1OC(CO)C(O)C1O (stereo unspecified): 101 % of control
COc1ccc(C(Br)C(Br)C(=O)c2ccc3c(c2)OCO3)cc1OC (stereo unspecified): 97 % of control
CCN(CC)CCNc1ccc(C)c2sc3ccccc3c(=O)c12 (tested in a mixture with another compound): 166 % of control
CCOC(=O)C1CC=CCC1C(=O)OCC (stereo unspecified): 118 % of control

For every item below, please supply its T/C.
1. C/C(=C\c1ccccc1)[N+](=O)[O-]
2. COc1ccc2c(C)[n+]3ccc4cc(OC)c(OC)cc4c3cc2c1 (tested in a mixture with another compound)
3. COc1ccc2c(c1)N(C)CCCC2=O
4. CC1(c2cccs2)C(=O)N(Cl)C(=O)N1Cl (stereo unspecified)
5. Cc1ccc(NC(=O)NCCCOc2ccc(N3C(N)=NC(N)=NC3(C)C)cc2Cl)cc1S(=O)(=O)F

1: 100 % of control; 2: 150 % of control; 3: 99 % of control; 4: 118 % of control; 5: 186 % of control

====

What T/C was measured for each of the following?
- Test system: BDF1 mice, P388 leukemia ip, median survival T/C
- ASSAY DETAILS: NCI In Vivo Anticancer Drug Screen. Data for tumor model P388 Leukemia (intraperitoneal) in B6D2F1 (BDF1) mice
- TEST PARAMETERS: endpoint: median survival time; dose: 12.5 mg/kg/injection; schedule: Q04DX003 (ip); vehicle: Klucel (hydroxypropylcellulose) (HPC); higher = longer survival
Toxic doses and inconclusive results are not listed.

c1ccc(C[P+](c2ccccc2)(c2ccccc2)c2ccccc2)cc1: 118 % of control
COC(=O)C(CSCc1ccccc1)NC(=O)CCNC(=O)OCc1ccccc1 (centres undefined): 104 % of control
CC1=CCC2C(=O)C=CC(=O)C2C1 (centres undefined): 90 % of control

Consider the record given below.
Sample N#Cc1nc2c(nc1C#N)-c1ccccc1C2=O — what was its T/C? 108 % of control

====

- Test system: BDF1 mice, P388 leukemia ip, median survival T/C
- ASSAY DETAILS: NCI In Vivo Anticancer Drug Screen. Data for tumor model P388 Leukemia (intraperitoneal) in B6D2F1 (BDF1) mice
- TEST PARAMETERS: endpoint: median survival time; dose: 100.0 mg/kg/injection; schedule: Q04DX003 (ip); vehicle: saline with Tween-80; higher = longer survival
Inconclusive results and toxic doses are left out. Non-standard residues stand in square brackets, D forms with d. Residues, ends and D or L forms follow the SMILES beside them. ξ: configuration not given here. ξF = NC(Cc1ccccc1)C(=O)O
PROPERTY LABEL: T/C

Worked examples, 8 compounds total:
O=C(COc1ccc(Cl)cc1Cl)Oc1c(Cl)c(Cl)c(Cl)c(Cl)c1Cl: 87 % of control
COC(CN(C)C(=O)NC1CCCCC1)OC: 100 % of control
Cc1c(Cl)cccc1NC(=O)Nc1cccc2ccccc12: 91 % of control
Cc1ccc(C(=O)CCCCl)c(C)c1: 109 % of control
OC(O)C(F)(F)F: 104 % of control
CCCCN1CCCC(O)C1 (centres undefined): 110 % of control
O=C1NC(=O)C(c2ccccc2)(c2ccc(Cl)cc2Cl)N1 (centres undefined): 100 % of control
Cc1sc2c(c1-c1ccccc1)C(=O)CCCN2: 107 % of control

For every item below, please supply its T/C.
1. NC(Cc1ccccc1)C(=O)NCC(=O)NCC(=O)O (stereo not drawn) (H-[ξF]-Gly-Gly-OH)
2. Cc1ccc(S(=O)(=O)N2CCC(C(=O)O)(c3ccccc3)CC2)cc1
3. Cc1ccc2c(c1)NC(c1ccc(C(N)=S)cc1)N2 (centres undefined)
4. CC(=O)Oc1cc([N+](=O)[O-])ccc1C(=O)O
5. CN(c1ccccc1)S(=O)(=O)c1ccccc1
6. S=C(S)Nc1cccc2ccccc12

1. 95 % of control
2. 100 % of control
3. 87 % of control
4. 104 % of control
5. 95 % of control
6. 90 % of control

For every item below, please supply its T/C.
1. c1ccc(C(=NCCN=C(c2ccccc2)c2ccccc2)c2ccccc2)cc1
2. O=C(COc1ccccc1[N+](=O)[O-])Nc1cccnc1
3. c1cc2cccc3c2c(c1)c1sc2c4cccc5cccc(c54)c2c31
4. COn1nnc2c(Cl)c(Cl)ccc21
5. CC(=O)O.[Au].c1ccc([PH+](c2ccccc2)c2ccccc2)cc1

["100 % of control", "100 % of control", "91 % of control", "95 % of control", "110 % of control"]

For every item below, please supply its T/C.
1. CCOC(=O)C1(C(C)C)OC2CCCCCN2C1=O (centres undefined)
2. O=c1[nH]cnc2c(Cl)c(C(Cl)(Cl)Cl)nn12 (tested in a mixture with another compound)
3. CCN(C(C)C)C(C)C
4. Cc1cc2nc3c(nc2cc1C)-c1ccccc1C3=O
5. CCOc1ccc(C(=O)Nc2c(C)cc(C)cc2C)cc1

1: 108 % of control; 2: 111 % of control; 3: 100 % of control; 4: 110 % of control; 5: 96 % of control

For every item below, please supply its T/C.
1. O=Cc1nccn1Cc1ccccc1
2. CC1(C)CC(=O)NN1C(=O)c1ccccc1
3. c1ccc(C2OC2(c2ccccc2)c2ccccc2)cc1 (centres undefined)
4. Cc1ccc(S(=O)(=O)Nc2ccccc2SSc2ccccc2NS(=O)(=O)c2ccc(C)cc2)cc1
5. CC(C)COC(=O)c1cc(O)c(O)c(O)c1
6. O=[N+]([O-])c1ccc2nc3c(nc2c1)-c1cccc2cccc-3c12
7. NC(=O)CC(NC(=O)CCl)C(=O)O (centres undefined)

1: 106 % of control; 2: 100 % of control; 3: 95 % of control; 4: 100 % of control; 5: 105 % of control; 6: 91 % of control; 7: 90 % of control
